test system: anesthetized guinea-pig; test: Inotropic effect and lethal dose, slow intravenous infusion in anesthetized guinea-pig; type: in vivo; conditions: Cavia porcellus, iv, 1.5 h; slow i.v. infusion over 90 minutes, anesthetized guinea-pig; maximum increase in contractile force; read-out: Emax % increase in +dP/dTmax
Where a name gives a salt, the structure may show the parent alone.
Recorded Emax for the following compounds

compound: C[C@H]1O[C@@H](O[C@H]2[C@@H](O)C[C@H](O[C@H]3[C@@H](O)C[C@H](O[C@H]4CC[C@@]5(C)[C@H](CC[C@@H]6[C@@H]5C[C@@H](O)[C@]5(C)[C@@H](C7=CC(=O)OC7)CC[C@]65O)C4)O[C@@H]3C)O[C@@H]2C)C[C@H](O)[C@@H]1O [digoxin, reference compound]
Emax [%]: 158
//
compound: CC12CCC3C(CC(=C(F)F)C4CC(=NOC5CCNC5)CCC43C)C1CCC2=O (mixture of isomers) [I-az, hydrochloride]
Emax [%]: 244
//
compound: C[C@]12CC[C@H]3[C@@H](C/C(=N\O)[C@@]4(O)CC(=NO[C@H]5CCNC5)CC[C@]34C)[C@@H]1CCC2=O (mixture of isomers) [I-bq, hydrochloride]
Emax [%]: 380
//
compound: CC12CCC3C(CC(CCO)C4CC(=NOC5CCNC5)CCC43C)C1CCC2=O (mixture of isomers) [I-bc, hydrochloride]
Emax [%]: 183
//
compound: COC(=O)C1CC2C3CCC(=O)C3(C)CCC2C2(C)CCC(=NOC3CCNC3)CC12 (mixture of isomers) [I-au, hydrochloride]
Emax [%]: 164

* * *

tested on: anesthetized guinea-pig; assay: Inotropic effect and lethal dose, slow intravenous infusion in anesthetized guinea-pig; assay type: in vivo; conditions: duration of the inotropic effect; anesthetized guinea-pig
Where a name gives a salt, the structure may show the parent alone.
Recorded % decrease from Emax after 20 min from the end of the infusion for the following compounds
quantityName: % decrease from Emax after 20 min from the end of the infusion (%)

compound: COC(=O)C1CC2C3CCC(=O)C3(C)CCC2C2(C)CCC(=NOC3CCNC3)CC12 (mixture of isomers) [I-au, hydrochloride]
systemTested: anesthetized guinea-pig
unitsSymbol: %
val: 58

compound: C[C@]12CC[C@H]3[C@@H](C/C(=N\O)[C@@]4(O)CC(=NO[C@@H]5CCNC5)CC[C@]34C)[C@@H]1CCC2=O (mixture of isomers) [I-bp, hydrochloride]
systemTested: anesthetized guinea-pig
unitsSymbol: %
val: 100

compound: C=C1C[C@H]2[C@@H]3CCC(=O)[C@@]3(C)CC[C@@H]2[C@@]2(C)CCC(=NO[C@@H]3CCNC3)C[C@]12O (mixture of isomers) [I-bh, hydrochloride]
systemTested: anesthetized guinea-pig
unitsSymbol: %
val: 63

* * *

target: Dog Kidney Na+, K+-ATPase (Canis lupus familiaris, UniProt P50997); experiment: Inhibition of the enzymatic activity of purified Na+,K+-ATPase (hydrolysis of 32P-ATP); format: biochemical; conditions: dog kidney enzyme; hydrolysis of 32P-ATP in presence and absence of compound; read-out: Na+, K+-ATPase Inhibition IC50
Counter-ions that a name gives are not always drawn.
Consider the cut-off 5000 nM. If the recorded IC50 is strictly smaller, the label is Satisfied; if not, the label is Not satisfied.

compound: CC12CCC3C(CC(=O)C4CC(C=CC5CCNCC5)CCC43C)C1CCC2=O (centres unmarked) [I-dg]
classAssignment: Satisfied

compound: CON=C1CC2CC(=NOC3CCNC3)CCC2(C)C2CCC3(C)C(=O)CCC3C12 (mixture of isomers) [I-ce]
classAssignment: Satisfied

compound: CC12CCC3C(CC(CO)C4CC(=NOC5CCNC5)CCC43C)C1CCC2=O (mixture of isomers) [I-ar, hydrochloride]
classAssignment: Satisfied

compound: COCC1CC2C3CCC(=O)C3(C)CCC2C2(C)CCC(=NOC3CCNC3)CC12 (mixture of isomers) [I-as, hydrochloride]
classAssignment: Satisfied

compound: CON=C1CC2C3CCC(=O)C3(C)CCC2C2(C)CCC(=NOC3CCN(C)C3)CC12O (single isomer, unassigned) [I-ca]
classAssignment: Not satisfied

compound: CC12CCC3C(CC(NC=O)C4CC(=NOC5CCNC5)CCC43C)C1CCC2=O (mixture of isomers) [I-ay, hydrochloride]
classAssignment: Satisfied

compound: CON=C1CC2C3CCC(=O)C3(C)CCC2C2(C)CCC(=NOC3CCNC3)CC12O (single isomer, unassigned) [I-bv]
classAssignment: Satisfied

compound: CO/N=C1\C[C@H]2[C@@H]3CCC(=O)[C@@]3(C)CC[C@@H]2[C@@]2(C)CC/C(=N\O[C@H]3CCN(C)C3)C[C@]12O [I-by]
classAssignment: Not satisfied

compound: CON=C1CC2C3CCC(=O)C3(C)CCC2C2(C)CCC(=NOC3CCN(C)C3)CC12 (mixture of isomers) [I-bf, hydrochloride]
classAssignment: Not satisfied

compound: CC12CCC3C(C(CO)CC4CC(=NOC5CCNC5)CCC43C)C1CCC2=O (mixture of isomers) [I-ci, hydrochloride]
classAssignment: Satisfied

compound: CN1CCC(ON=C2CCC3(C)C(C2)C(CO)C(=O)C2C4CCC(=O)C4(C)CCC23)C1 (mixture of isomers) [I-ct]
classAssignment: Satisfied

compound: CON=C1CC2C3CCC(=O)C3(C)CCC2C2(C)CCC(=NOC3CCNC3)CC12O (single isomer, unassigned) [I-bw]
classAssignment: Satisfied

compound: CO/N=C1\C[C@H]2[C@@H]3CCC(=O)[C@@]3(C)CC[C@@H]2[C@@]2(C)CC/C(=N/O[C@@H]3CCN(C)C3)C[C@]12O [I-bz]
classAssignment: Not satisfied

compound: CC12CCC3C(C(NC=O)CC4CC(=NOC5CCNC5)CCC43C)C1CCC2=O (mixture of isomers) [I-cp, hydrochloride]
classAssignment: Satisfied
